- EXPERIMENTAL_DETAILS: in vitro microsomal stability, mouse liver microsomes
- Format: in vitro ADME

COMPOUND	half-life
CNc1cc2c(cc1S(=O)(=O)Nc1ccc(C)c(C)c1)CCC(=O)N2 [Compound 54]	< 25 min
Cc1ccc(NS(=O)(=O)c2ccc3c(c2)CCC(=O)N3)cc1C [Compound 3]	< 20 min
Cc1ccc(NS(=O)(=O)c2cc3c(cc2N(C)C)NC(=O)CC3)cc1C [Compound 52]	< 25 min

----------
- EXPERIMENTAL_DETAILS: Caco-2 permeability
- Format: in vitro ADME
- ASSAY_SETUP: human, Caco-2, Caco-2 Permeability Efflux Ratio
// reported efflux ratio for each item listed

MOLECULE	efflux ratio
Cc1ccc(NS(=O)(=O)c2cc3c(cc2F)NC(=O)CC3)cc1Cl [Compound 64]	≤ 1
O=C1CCc2cc(S(=O)(=O)Nc3ccc(F)c(Cl)c3)c(F)cc2N1 [Compound 66]	≤ 1
Cc1ccc(NS(=O)(=O)c2ccc3c(c2)CCC(=O)N3)cc1C [Compound 3]	< 1

----------
// reported Caco-2 Permeability Papp (B–A) for each item listed
- System: Caco-2
- EXPERIMENTAL_DETAILS: Caco-2 permeability
- Format: in vitro ADME
- ASSAY_SETUP: B–A

COMPOUND	Caco-2 Permeability Papp (B–A)
O=C1CCc2cc(S(=O)(=O)Nc3ccc(F)c(Cl)c3)c(F)cc2N1	7.91 10^−6, cm/s
Cc1ccc(NS(=O)(=O)c2cc3c(cc2F)NC(=O)CC3)cc1Cl	6.24 10^−6, cm/s
Cc1ccc(NS(=O)(=O)c2ccc3c(c2)CCC(=O)N3)cc1C	12.21 10^−6, cm/s
C[C@@H](CO)Nc1cc2c(cc1S(=O)(=O)Nc1ccc(F)c(Cl)c1)CCC(=O)N2	17.52 10^−6, cm/s
Cc1ccc(NS(=O)(=O)c2cc3c(cc2N[C@@H](C)CO)NC(=O)CC3)cc1Cl	11.9 10^−6, cm/s

----------
// reported AC50 for each item listed
- TARGET_SYSTEM: hPK M2 (Homo sapiens)
- Sequence (P14618 whole entry): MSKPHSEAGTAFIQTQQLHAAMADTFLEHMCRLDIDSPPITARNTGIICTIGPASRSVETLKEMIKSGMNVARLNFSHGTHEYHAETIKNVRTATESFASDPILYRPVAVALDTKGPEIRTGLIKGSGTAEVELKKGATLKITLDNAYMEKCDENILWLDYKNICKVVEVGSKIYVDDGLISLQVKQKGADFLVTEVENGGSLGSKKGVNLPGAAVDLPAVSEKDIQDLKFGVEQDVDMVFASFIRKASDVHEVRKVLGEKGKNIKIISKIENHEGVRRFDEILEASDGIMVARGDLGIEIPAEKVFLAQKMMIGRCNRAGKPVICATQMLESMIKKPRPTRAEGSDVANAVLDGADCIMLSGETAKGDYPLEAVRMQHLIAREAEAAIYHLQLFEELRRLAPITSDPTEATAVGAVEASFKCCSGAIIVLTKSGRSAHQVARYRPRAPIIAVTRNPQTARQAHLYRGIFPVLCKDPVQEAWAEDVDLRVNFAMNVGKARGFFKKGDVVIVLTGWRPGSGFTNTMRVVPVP
- EXPERIMENTAL_DETAILS: luminescent pyruvate kinase-luciferase coupled assay
- Assay type: biochemical
- ASSAY_SETUP: hPK M2 AC50, average from three separate experiments

COMPOUND	AC50
Cc1ccc(NS(=O)(=O)c2ccc3c(c2)CCC(C)(C)O3)cc1C	10 µM
Cc1ccc(NS(=O)(=O)c2ccc3c(c2)NC(=O)CO3)cc1C	13.4 µM
CC(=O)N1CCCc2cc(S(=O)(=O)Nc3ccc(C)c(C)c3)ccc21	9 µM
Cc1ccc(NS(=O)(=O)c2ccc(N3CCCC3=O)cc2)cc1C	0.94 µM
Cc1ccc(NS(=O)(=O)c2ccc3c(c2)CCCC(=O)N3)cc1C	7.1 µM
Cc1ccc(NS(=O)(=O)c2ccc3ccccc3c2)cc1C	18.4 µM
CC(=O)Nc1cccc(S(=O)(=O)Nc2ccc(C)c(C)c2)c1	13.1 µM
Cc1ccc(NS(=O)(=O)c2cccc(C(=O)O)c2)cc1C	> 20 µM
COc1ccc(S(=O)(=O)Nc2ccc(C)c(C)c2)cc1	17.3 µM
Cc1ccc(NS(=O)(=O)c2ccc(F)cc2)cc1C	> 20 µM
Cc1ccc(NS(=O)(=O)c2ccc3c(c2)N(C)CCO3)cc1C	6 µM
Cc1ccc(NS(=O)(=O)c2ccc3c(c2)CC(=O)N3C)cc1C	2.3 µM
Cc1ccc(NS(=O)(=O)c2ccc3c(c2)oc(=O)n3C)cc1C	4.3 µM
Cc1ccc(NS(=O)(=O)c2ccc3[nH]c(=O)[nH]c3c2)cc1C	> 20 µM
Cc1ccc(NS(=O)(=O)c2cccc(Cl)c2)cc1C	18.3 µM
CC(=O)N1CCc2cc(S(=O)(=O)Nc3ccc(C)c(C)c3)ccc21	1.5 µM
Cc1ccc(NS(=O)(=O)c2ccc3c(c2)CC(=O)N3)cc1C	8.3 µM
CC(=O)Nc1ccc(S(=O)(=O)Nc2ccc(C)c(C)c2)cc1	6.9 µM
